All values here come from a collection of fitness landscapes (doi:10.1016/j.celrep.2020.107928).

B1: Caulobacter ParB omega fusion; a variant is named by its letters at X, in order, B8GW30 (parent)
chain: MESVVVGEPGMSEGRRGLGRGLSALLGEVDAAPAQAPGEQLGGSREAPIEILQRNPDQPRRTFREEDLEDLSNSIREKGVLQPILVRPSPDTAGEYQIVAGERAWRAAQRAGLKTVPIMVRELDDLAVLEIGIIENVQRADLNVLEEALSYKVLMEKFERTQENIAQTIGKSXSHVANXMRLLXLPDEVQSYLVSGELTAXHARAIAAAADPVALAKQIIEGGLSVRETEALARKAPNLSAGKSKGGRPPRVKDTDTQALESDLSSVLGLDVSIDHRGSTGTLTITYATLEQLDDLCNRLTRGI

# Variants of: B1
# measurement.notes: one-hybrid fitness for binding NBS DNA (the Noc-binding site; scaled: cognate 1, non-cognate 0); higher = stronger binding
# applied.conditions: with NBS DNA site
The full ranking holds about 81,000 sequences; the median of “one-hybrid fitness for binding NBS DNA” is about -0.1, and the highest 2% start at about 0.36. The sample holds the highest values, similar sequences and a random draw of the others, so the mix is not that of the screen.
observation.type: one-hybrid fitness for binding NBS DNA

Previously resolved entries follow.
| mutations | one-hybrid fitness for binding NBS DNA |
| --- | --- |
| QTWK | ≤ 0.2 |
| QQKT | 0.811 |
| QKVC | ≤ 0.2 |
| QLNS | 0.385 |
| YMLA | ≤ 0.2 |

Hey, quick one: what's one-hybrid fitness for binding NBS DNA for each of these?
1. QQFS
2. IYRA
3. YFMR
4. MAIS

[out]
[0.284, "≤ 0.2", "≤ 0.2", "≤ 0.2"]

Hey, quick one: what's one-hybrid fitness for binding NBS DNA for each of these?
1. QTWC
2. SYSC
3. TDVE
4. NISL
5. QMQD

[out]
≤ 0.2
≤ 0.2
≤ 0.2
≤ 0.2
≤ 0.2

Hey, quick one: what's one-hybrid fitness for binding NBS DNA for each of these?
1. RRQD
2. YKLT
3. RPWA
4. RCQG
5. HSKL
6. DMRR

[out]
≤ 0.2
≤ 0.2
≤ 0.2
≤ 0.2
≤ 0.2
≤ 0.2

Hey, quick one: what's one-hybrid fitness for binding NBS DNA for each of these?
1. QLWR
2. SSRN
3. QLDS
4. RMFS

[out]
1: 0.319; 2: ≤ 0.2; 3: ≤ 0.2; 4: 0.221

Hey, quick one: what's one-hybrid fitness for binding NBS DNA for each of these?
1. QCNS
2. QMQN
3. QLNP

[out]
0.534
≤ 0.2
≤ 0.2

Hey, quick one: what's one-hybrid fitness for binding NBS DNA for each of these?
1. RSRR
2. RRWA
3. QKNF
4. QSVC
5. QLKC
6. YKVT
7. QMVC

[out]
1. 0.664
2. 0.546
3. ≤ 0.2
4. ≤ 0.2
5. 0.304
6. ≤ 0.2
7. ≤ 0.2

Hey, quick one: what's one-hybrid fitness for binding NBS DNA for each of these?
1. CPVW
2. QKDR

[out]
1: ≤ 0.2; 2: 0.425

Hey, quick one: what's one-hybrid fitness for binding NBS DNA for each of these?
1. QRPE
2. QNLL

[out]
["≤ 0.2", "≤ 0.2"]
